Measured melting point of individual entries

Molecule	melting point
C[C@@H](CO)NC(=O)c1cccc(N(C2CN(C(c3ccc(Cl)cc3)c3ccc(Cl)cc3)C2)S(C)(=O)=O)c1	192 to 194 °C
CC(C)(O)CNC(=O)c1cccc(N(C2CN(C(c3ccc(Cl)cc3)c3ccc(Cl)cc3)C2)S(C)(=O)=O)c1	140 °C
CC(CO)(CO)NC(=O)c1cccc(N(C2CN(C(c3ccc(Cl)cc3)c3ccc(Cl)cc3)C2)S(C)(=O)=O)c1	192 °C
CS(=O)(=O)N(c1cccc(C(=O)NC(CO)CO)c1)C1CN(C(c2ccc(Cl)cc2)c2ccc(Cl)cc2)C1	192 to 194 °C
CC(CO)(CO)NC(=O)c1cc(F)cc(N(C2CN(C(c3ccc(Cl)cc3)c3ccc(Cl)cc3)C2)S(C)(=O)=O)c1	159 to 161 °C
CC(C)(CO)NC(=O)c1cccc(N(C2CN(C(c3ccc(Cl)cc3)c3ccc(Cl)cc3)C2)S(C)(=O)=O)c1	162 °C
CS(=O)(=O)N(c1cc(F)cc(C(=O)NC(CO)CO)c1)C1CN(C(c2ccc(Cl)cc2)c2ccc(Cl)cc2)C1	144 to 146 °C
CC(CO)NC(=O)c1cc(F)cc(N(C2CN(C(c3ccc(Cl)cc3)c3ccc(Cl)cc3)C2)S(C)(=O)=O)c1 (single isomer, unassigned; (+))	148 to 150 °C

---

Study Target: CB1-type cannabinoid receptor (Mus musculus)
Construct: male CD1 mice receive the test product per os; from tissue; host or cells: whole animal, male CD1 mice
Sequence (P47746 whole entry): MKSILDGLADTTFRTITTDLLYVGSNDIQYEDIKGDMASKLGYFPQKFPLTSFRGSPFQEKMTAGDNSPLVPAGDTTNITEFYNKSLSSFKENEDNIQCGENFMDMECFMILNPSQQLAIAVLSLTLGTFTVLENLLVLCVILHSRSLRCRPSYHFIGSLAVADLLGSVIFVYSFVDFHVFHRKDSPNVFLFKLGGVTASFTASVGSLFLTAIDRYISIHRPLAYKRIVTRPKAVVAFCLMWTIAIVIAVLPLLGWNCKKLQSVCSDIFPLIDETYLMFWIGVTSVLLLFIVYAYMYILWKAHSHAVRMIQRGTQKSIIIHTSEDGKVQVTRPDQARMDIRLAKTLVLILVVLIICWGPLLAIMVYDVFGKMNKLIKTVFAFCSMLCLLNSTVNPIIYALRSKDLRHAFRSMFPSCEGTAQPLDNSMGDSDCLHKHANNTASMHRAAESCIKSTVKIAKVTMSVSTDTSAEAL
Assay Procedure: inhibition of gastrointestinal transit induced by racemic CP55,940 in mice (charcoal bolus)
Format: in vivo
Condition Notes: 1 mg/kg po; male CD1 mice; CP55,940 0.15 mg/kg ip; progression of charcoal bolus
Measured percentage of inhibition of individual entries
Measurement Kind: percentage of inhibition (%)

Compound	Measured Value
C[C@@H](CO)NC(=O)c1cc(N(C2CN(C(c3ccc(Cl)cc3)c3ccc(Cl)cc3)C2)S(C)(=O)=O)cc(C(F)(F)F)c1 [compound 36]	85
C[C@@H](CO)NC(=O)c1cccc(N(C2CN(C(c3ccc(Cl)cc3)c3ccc(Cl)cc3)C2)S(C)(=O)=O)c1 [Compound No. 9]	82
CS(=O)(=O)N(c1cc(C(=O)N[C@H]2CCC[C@@H]2O)cc(C(F)(F)F)c1)C1CN(C(c2ccc(Cl)cc2)c2ccc(Cl)cc2)C1 (racemic) [compound 41]	91
CC(CO)(CO)NC(=O)c1cc(F)cc(N(C2CN(C(c3ccc(Cl)cc3)c3ccc(Cl)cc3)C2)S(C)(=O)=O)c1 [Compound No. 27]	58
